- target-or-system: human Siglec-7 on primary human monocyte-derived dendritic cells (human, UniProt Q9Y286 19-467)
- Sequence (Q9Y286 19-467): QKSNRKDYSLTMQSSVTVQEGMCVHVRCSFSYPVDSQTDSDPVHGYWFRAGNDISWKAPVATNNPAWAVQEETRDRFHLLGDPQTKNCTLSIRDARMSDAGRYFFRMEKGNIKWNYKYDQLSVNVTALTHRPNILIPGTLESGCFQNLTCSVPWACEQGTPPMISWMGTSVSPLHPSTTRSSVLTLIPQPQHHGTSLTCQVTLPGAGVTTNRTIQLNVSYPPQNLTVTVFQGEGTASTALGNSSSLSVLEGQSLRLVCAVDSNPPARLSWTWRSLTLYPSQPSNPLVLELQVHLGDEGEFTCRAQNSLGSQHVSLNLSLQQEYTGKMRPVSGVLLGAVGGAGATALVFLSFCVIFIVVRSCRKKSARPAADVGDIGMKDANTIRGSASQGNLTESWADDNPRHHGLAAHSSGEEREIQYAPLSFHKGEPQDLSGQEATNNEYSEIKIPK
- assay-details: cell-based or functional assay
# Fold increase in potency compared to Chimeric Ab per record follows
experimental-endpoint: Fold increase in potency compared to Chimeric Ab

[
  {
    "binder": "S7AB-H8.44.2 (antibody, V domains shown) VH: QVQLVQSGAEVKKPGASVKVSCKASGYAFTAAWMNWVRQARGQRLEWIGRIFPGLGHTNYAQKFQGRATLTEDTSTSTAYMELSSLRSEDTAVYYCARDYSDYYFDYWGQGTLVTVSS VL: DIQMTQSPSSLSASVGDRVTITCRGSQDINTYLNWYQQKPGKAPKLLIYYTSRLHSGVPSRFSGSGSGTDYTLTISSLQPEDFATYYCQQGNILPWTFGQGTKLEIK",
    "measurement": "14.1 fold"
  },
  {
    "binder": "S7AB-H8.11 (antibody, V domains shown) VH: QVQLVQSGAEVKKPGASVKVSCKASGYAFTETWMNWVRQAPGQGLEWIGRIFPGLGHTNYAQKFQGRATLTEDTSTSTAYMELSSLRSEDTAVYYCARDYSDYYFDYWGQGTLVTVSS VL: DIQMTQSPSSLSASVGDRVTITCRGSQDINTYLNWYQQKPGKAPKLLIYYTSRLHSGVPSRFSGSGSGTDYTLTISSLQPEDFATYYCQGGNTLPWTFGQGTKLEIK",
    "measurement": "0.1 fold"
  },
  {
    "binder": "S7AB-H8.9.1 (antibody, V domains shown) VH: QVQLVQSGAEVKKPGASVKVSCKASGYAFTAAWMNWVRQAPGQRLEWIGRIFPGLGHTNYAQKFQGRATLTEDTSTSTAYMELSSLRSEDTAVYYCARDYSDYYFDYWGQGTLVTVSS VL: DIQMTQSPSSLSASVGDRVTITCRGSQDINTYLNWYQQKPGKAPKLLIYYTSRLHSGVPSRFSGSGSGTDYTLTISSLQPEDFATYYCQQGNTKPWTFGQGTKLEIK",
    "measurement": "10.5 fold"
  }
]
